Data credit: ChEMBL document CHEMBL4673279

Tested on: MCF7
Assay protocol: Cytotoxicity against human MCF7 cells assessed as reduction in cell viability after 48 hrs by CCK8 assay
Assay type: functional, cell-based
Experimental conditions: MCF7, 48 h
Measured IC50 by item
Answer with a number only, understood to be in µM.

Guide cases for IC50, answers given:
{"Smiles input": "COc1c(OC)c2c3c(nccc3c1-c1cccc(F)c1)C(c1cccc(F)c1)=CN2", "IC50, µM": 20}
{"Smiles input": "COc1c(OC)c2c3c(nccc3c1-c1ccc(Cl)cc1)C=CN2", "IC50, µM": 9.4}
{"Smiles input": "CCc1ccc(C2=CNc3c(OC)c(OC)c(-c4ccc(CC)cc4)c4ccnc2c34)cc1", "IC50, µM": 18}
{"Smiles input": "COc1c(OC)c2c3c(nccc3c1-c1cccc(C)c1)C(c1cccc(C)c1)=CN2", "IC50, µM": 10}
{"Smiles input": "COc1ccc(C2=CNc3c(OC)c(OC)c(-c4ccc(OC)cc4)c4ccnc2c34)cc1", "IC50, µM": 12}

query: Field request: IC50 | item: "COc1c(OC)c2c3c(nccc3c1-c1cccc(C(F)(F)F)c1)C=CN2"
result: 3.2

query: Field entry: "COc1ccc(-c2c(OC)c(OC)c3c4c(nccc24)C=CN3)cc1"
result: 9.8

---

Assay protocol: Cytotoxicity against human SNK6 cells assessed as reduction in cell viability after 48 hrs by CCK8 assay
Type: functional, cell-based
Experimental conditions: SNK6, 48 h
Reported endpoint: pIC50
Interpret pIC50 as the negative base-10 log of the concentration measured in mol/L.

{"Smiles input": "COc1c(OC)c2c3c(nccc3c1-c1cccc(C(F)(F)F)c1)C(c1cccc(C(F)(F)F)c1)=CN2", "pIC50": 5.07}

query: Field request: pIC50 | item: "COc1c(OC)c2c3c(nccc3c1-c1cccc(F)c1)C(c1cccc(F)c1)=CN2"
result: 5.00

query: Field entry: "CCc1ccc(C2=CNc3c(OC)c(OC)c(-c4ccc(CC)cc4)c4ccnc2c34)cc1"
result: 5.38

query: Field entry: "CCc1ccc(C2=CNc3c(OC)c(OC)cc4ccnc2c34)cc1"
result: 5.31

query: Field entry: "COc1ccc(C2=CNc3c(OC)c(OC)c(-c4ccc(OC)cc4)c4ccnc2c34)cc1"
result: 5.24

query: Field entry: "COc1c(OC)c2c3c(nccc3c1-c1ccc(Cl)cc1)C=CN2"
result: 5.11

query: Field entry: "COc1c(OC)c2c3c(nccc3c1-c1cccc3ccccc13)C=CN2"
result: 4.80

query: Field entry: "COc1c(OC)c2c3c(nccc3c1-c1ccc(C(F)(F)F)cc1)C(c1ccc(C(F)(F)F)cc1)=CN2"
result: 5.03

---

Measured pIC50 by item
Test system: MCF7
Assay protocol: Cytotoxicity against human MCF7 cells assessed as reduction in cell viability after 48 hrs by CCK8 assay
Format: functional, cell-based
Experimental conditions: MCF7, 48 h
pIC50: −log10 of the molar value.

{"Smiles input": "COc1cc2ccnc3c2c(c1OC)NC=C3c1cccc(C(C)C)c1", "Experimental value": "< 4.70"}
{"Smiles input": "COc1cc2ccnc3c2c(c1OC)NC=C3", "Experimental value": "< 4.70"}

Pending compound:
query: Field request: pIC50 | item: "COc1c(OC)c2c3c(nccc3c1-c1cccc3ccccc13)C(c1cccc3ccccc13)=CN2"
result: < 4.70
